tested on: HEK293T cells; test: CCK-8 assay for cytotoxicity; assay type: cell-based, human; details: HEK293T cell viability, 48 h
quantity.name: CC50
Mention the unit after the number when you answer.

Query string: Checklist item: CC50 tested on HEK293T cells, entry CC[C@H]1OC(=O)[C@H](C)[C@@H](OC(=O)NCCCCCCC#Cc2ccc3c(=O)c(C(=O)O)cn(C)c3c2)[C@H](C)[C@@H](O[C@@H]2O[C@H](C)C[C@H](N(C)C)[C@H]2O)[C@](C)(OC)C[C@@H](C)C(=O)[C@H](C)[C@H]2NC(=O)O[C@@]21C [MCX-219] , value?
Result string: 26 µM
